Numbers sourced from PubChem BioAssay (NCATS).

# TEST: qHTS of pediatric cancer cell lines to identify multiple opportunities for drug repurposing: Primary screen for Rh41 cells (AID 1347108); also: nearly all actives have a fitted effect of over 70% in size; also: potency is read from the fitted curve at half-maximal effect
# STUDY_CONDITIONS: Rh41 rhabdomyosarcoma viability, CellTiter-Glo luminescence, 48 h; series mostly up to 46 µM
Inconclusive results are not listed. Active and inactive are the calls of the source. Calls follow the shape of the dose curve; as a rule, active = well fitted cell-killing curve with a large enough effect; inconclusive = small, poorly fitted or top-dose-only effect; inactive = no such curve, though single readings can be large or run the other way.

MOLECULE | Potency
Cc1cc(Nc2cc(N3CCN(C)CC3)nc(Sc3ccc(NC(=O)C4CC4)cc3)n2)n[nH]1 | 11.8 µM (active)
COc1cc2c(Oc3ccc4[nH]c(C)cc4c3F)ncnc2cc1OCCCN1CCCC1 | 18.7 µM (active)
CC[C@@]1(O)C(=O)OCc2c1cc1n(c2=O)Cc2cc3cc(O)ccc3nc2-1 | 0.469 µM (active)
CC[C@@H]1C(=O)N(C)c2cnc(Nc3ccc(C(=O)NC4CCC(N5CCN(CC6CC6)CC5)CC4)cc3OC)nc2N1C(C)C (some centres not stated) | 2.35 µM (active)
CN(C)c1nc(Cc2ccc(NC(=O)c3ccc4ccccc4c3)cc2)nc(Cl)c1CC(=O)O | inactive
Cc1cc(Nc2ncnc3ccc(-c4ccc(CNCCS(C)(=O)=O)o4)cc23)ccc1Oc1ccn2ncnc2c1 | 11.8 µM (active)
COc1ccc(F)c(F)c1C(=O)c1cnc(NC2CCN(S(C)(=O)=O)CC2)nc1N | 7.43 µM (active)
COc1cc(C)c(Sc2cnc(NC(=O)c3ccc(CNC(C)C(C)C)cc3)s2)cc1C(=O)N1CCN(C(C)=O)CC1 (configuration not stated) | 2.64 µM (active)
CC(NCc1ccc2c(c1)nc(NC(=O)c1ccc(-c3cn[nH]c3)s1)n2CC(C)(C)O)C(C)(C)C (configuration not stated) | 0.743 µM (active)
Nc1cc(C(F)(F)F)c(-c2cc(N3CCOCC3)nc(N3CCOCC3)n2)cn1 | 1.18 µM (active)
COC(=O)[C@]12CCC(C)(C)C[C@@H]1[C@@H]1C(=O)C=C3[C@@]4(C)C=C(C#N)C(=O)C(C)(C)[C@@H]4CC[C@@]3(C)[C@]1(C)CC2 | 1.18 µM (active)
CN1CCC(CNc2ccc3ncc(-c4cccc(OC(F)(F)F)c4)n3n2)CC1 | 18.7 µM (active)
CC1(O)CC(c2nc(-c3ccc4ccc(-c5ccccc5)nc4c3)c3c(N)nccn23)C1 (configuration not stated) | 0.935 µM (active)
COc1cccc2c(NCc3ccccc3)nc(-n3c(N)nc4ccccc43)nc12 | 18.7 µM (active)
O=C(CCCCCCC(=O)Nc1ccc([C@H]2O[C@@H](CSc3nc(-c4ccccc4)c(-c4ccccc4)o3)C[C@@H](c3ccc(CO)cc3)O2)cc1)NO | 9.35 µM (active)
O=c1c2ccccc2nc2n1CCc1c-2[nH]c2ccccc12 | inactive
CCCCCCCCCC(=O)N[C@@H](Cc1c[nH]c2ccccc12)C(=O)N[C@H](CC(N)=O)C(=O)N[C@@H](CC(=O)O)C(=O)N[C@@H]1C(=O)NCC(=O)N[C@@H](CCCN)C(=O)N[C@@H](CC(=O)O)C(=O)N[C@H](C)C(=O)N[C@@H](CC(=O)O)C(=O)NCC(=O)N[C@H](CO)C(=O)N[C@@H]([C@@H](C)CC(=O)O)C(=O)N[C@@H](CC(=O)c2ccccc2N)C(=O)O[C@@H]1C | inactive
N#CCNC(=O)c1ccc(-c2ccnc(Nc3ccc(N4CCOCC4)cc3)n2)cc1 | 18.7 µM (active)
COc1cc2c(Oc3ccc(-c4cnc(Nc5ccc(F)cc5)n(C)c4=O)cc3F)ccnc2cc1OCCCN1CCOCC1 | 4.69 µM (active)
CC1(C)CCC(c2ccc(Cl)cc2)=C(CN2CCN(c3ccc(C(=O)NS(=O)(=O)c4ccc(N[C@H](CCN5CCOCC5)CSc5ccccc5)c(S(=O)(=O)C(F)(F)F)c4)cc3)CC2)C1 | 5.9 µM (active)
CC(=O)Nc1nc(C)c(-c2ccc(Cl)c(S(=O)(=O)NCCO)c2)s1 | 6.62 µM (active)
CN1CCN(c2cc(C(=O)Nc3ccc4c(c3)-c3c(c(C(N)=O)nn3-c3ccc(F)cc3)CC4)c(Cl)cn2)CC1 | 20.9 µM (active)
CC(C)=CCCC(C)=CCCC(C)=CCSc1ccccc1C(=O)O | 4.69 µM (active)
CN1CCN(Cc2ccc(NC(=O)Nc3ccc(Oc4cc(NC(=O)C5CC5)ncn4)cc3)cc2C(F)(F)F)CC1 | 0.469 µM (active)
CCN(CC)CCNC(=O)c1ccc2nc(-c3ccccc3)c(-c3ccc(CN4CCC(n5c(=O)[nH]c6ccccc65)CC4)cc3)nc2c1 | 10.5 µM (active)
C=C1C(=CC=C2CCC[C@]3(C)[C@@H]([C@H](C)C=C[C@H](C)C(C)C)CC[C@@H]23)C[C@@H](O)C[C@@H]1O | 0.935 µM (active)
C[C@H]1C[C@@H]2[C@@H]([C@@H](O)C[C@@]3(C)[C@H]2CC[C@]3(O)C(=O)CO)[C@@]2(C)C=CC(=O)C=C12 | inactive
Cc1cc(C(=O)N2CCN(c3cccc(Cl)c3)CC2)n(-c2ccccc2)n1 | 2.35 µM (active)
C=CC(=O)Nc1cc2c(Nc3ccc(F)c(Cl)c3)ncnc2cc1OCCCN1CCOCC1 | 18.7 µM (active)
C#Cc1cccc(Nc2ncnc3cc(OC)c(OCCCCCCC(=O)NO)cc23)c1 | 0.372 µM (active)
Cc1nc(Nc2n[nH]c3c2CN(C(=O)N[C@H](CN(C)C)c2ccccc2)C3(C)C)c2sccc2n1 | 6.62 µM (active)
Cc1ccc(C(=O)Nc2cccc(C(F)(F)F)c2)cc1-c1ccc2nc(NCCN3CCOCC3)ncc2c1 | 14.8 µM (active)

###

# System: CASKI
# TEST: Primary qHTS to identify gynecologic anti-cancer compounds using libraries of approved drugs and bioactive compounds (AID 1345084); also: nearly all actives have a fitted effect of over 55% in size
# STUDY_CONDITIONS: Gynecologic cancer cell panel viability, ATPlite luminescence, 48 h; series mostly up to 57.5 µM
Inconclusive results are not listed. Calls of active or inactive are those of the source. The call rests on the fitted dose curve; in most records, active means well fitted cell-killing curve with a large enough effect; inconclusive means small, poorly fitted or top-dose-only effect, or effect the other way; inactive means flat fitted curve, though single readings scatter.
Possible outcomes: 1.0 for active, 0.0 for inactive

COMPOUND | ANSWER_LABEL
COc1ccc(F)c(F)c1C(=O)c1cnc(NC2CCN(S(C)(=O)=O)CC2)nc1N | 1.0
Clc1ccc2ncc(-c3cccc(NC4CNC4)n3)n2c1 | 0.0
Cc1nc(Nc2n[nH]c3c2CN(C(=O)N[C@H](CN(C)C)c2ccccc2)C3(C)C)c2sccc2n1 | 1.0
Cn1c(CNc2ccc(C(=N)N)cc2)nc2cc(C(=O)N(CCC(=O)O)c3ccccn3)ccc21 | 0.0
CC[C@@H]1C(=O)N(C)c2cnc(Nc3ccc(C(=O)NC4CCC(N5CCN(CC6CC6)CC5)CC4)cc3OC)nc2N1C(C)C (some centres undefined) | 1.0
CCCCCN(CCC12CC3CC(CC(C3)C1)C2)C(=O)NCCCc1ccncc1 | 0.0
Cn1c2ccccc2c2c3c(c4c5ccccc5n(CCC#N)c4c21)CNC3=O | 0.0
CCS(=O)(=O)c1cccc(-c2cc(C(=O)NC3CCN(C)CC3)c(C)c3[nH]c4ncc(C)cc4c23)c1 | 1.0
Clc1cccc(-n2nnnc2NCc2ccccc2Oc2ccccn2)c1Cl | 0.0

###

# TEST: Primary qHTS for small molecule stabilizers of the endoplasmic reticulum resident proteome: Secreted ER Calcium Modulated Protein (SERCaMP) assay (AID 1508630)
# STUDY_CONDITIONS: SH-SY5Y GLuc-SERCaMP (Gaussia luciferase released on ER calcium loss) secretion, thapsigargin, luminescence; series mostly up to 38.4 µM
Records with an inconclusive call do not appear. Active and inactive are the calls of the source. The call rests on the fitted dose curve; in most records, active means well fitted inhibition curve with a large enough effect; inconclusive means small, poorly fitted or top-dose-only effect; inactive means no such curve, though single readings can be large or run the other way.
PROPERTY_MEASURED: outcome

MOLECULE | PROPERTY_MEASURED | TEST_VALUE
Cn1c2ccccc2c2c3c(c4c5ccccc5n(CCC#N)c4c21)CNC3=O | outcome | inactive
CNc1nccc(-c2cccnc2Oc2cc(C(=O)Nc3cccc(C(F)(F)F)c3)ccc2C)n1 | outcome | inactive
COc1ccc(C(=O)CC2(O)C(=O)Nc3c(Cl)ccc(Cl)c32)cc1 (centres undefined) | outcome | inactive
C=CC(=O)Nc1cccc(Oc2nc(Nc3ccc(N4CCN(C)CC4)cc3OC)ncc2Cl)c1 | outcome | inactive
C#Cc1cccc(Nc2ncnc3cc(OC)c(OCCCCCCC(=O)NO)cc23)c1 | outcome | inactive
COC(=O)Nc1nc2ccc(C(=O)c3ccc(F)cc3)cc2[nH]1 | outcome | inactive
CCN(CC)CCCCNc1ncc2cc(-c3cc(OC)cc(OC)c3)c(NC(=O)NC(C)(C)C)nc2n1 | outcome | inactive
C[C@@H]1CN(CC(=O)Nc2ccc3c(c2)Cc2cccc(-c4cc(=O)cc(N5CCOCC5)o4)c2S3)C[C@H](C)O1 | outcome | inactive
C[C@@]12O[C@@H](C[C@]1(O)CO)n1c3ccccc3c3c4c(c5c6ccccc6n2c5c31)CNC4=O | outcome | inactive

###

# Test system: MKL-2
# TEST: qHTS assay to identify novel small-molecules to repurpose for Merkel cell carcinoma treatment (AID 1296009); also: nearly all actives have a fitted effect of over 60% in size
# STUDY_CONDITIONS: MCC and control cell lines, CellTiter-Glo viability, 72 h; series mostly up to 46 µM
Records with an inconclusive call do not appear. Active and inactive are the calls of the source. The call rests on the fitted dose curve; in most records, active means well fitted inhibition curve with a large enough effect; inconclusive means small, poorly fitted or top-dose-only effect; inactive means flat fitted curve, though single readings scatter.
Outcomes: active, inactive

COMPOUND | MEASURED_ON | ANSWER_LABEL
CC(O)C1C(=O)N2C(C(=O)O)=C(SC3CNC(C(=O)N(C)C)C3)C(C)C12 (configuration not stated) | MKL-2 | inactive
Nc1cc(C(F)(F)F)c(-c2cc(N3CCOCC3)nc(N3CCOCC3)n2)cn1 | MKL-2 | inactive
O=C(Nc1cn[nH]c1-c1nc2ccc(CN3CCOCC3)cc2[nH]1)NC1CC1 | MKL-2 | active
O=C(O)c1ccc2c(c1)nc(Nc1cccc(Cl)c1)c1ccncc12 | MKL-2 | active
O=C(O)[C@H](Cc1c[nH]c2ccccc12)N1C(=O)c2ccccc2C1=O | MKL-2 | inactive
CNC(=O)c1ccc(-c2cnc3ncc(Cc4ccc5ncccc5c4)n3n2)cc1F | MKL-2 | inactive
O=C(C=Cc1c(C(=O)O)[nH]c2cc(Cl)cc(Cl)c12)Nc1ccccc1 | MKL-2 | inactive
C=CC(=O)Nc1cccc(Oc2nc(Nc3ccc(N4CCN(C)CC4)cc3)ncc2Cl)c1 | MKL-2 | active
Cc1ccc(NC(=O)C2(c3ccc4c(c3)OC(F)(F)O4)CC2)nc1-c1cccc(C(=O)O)c1 | MKL-2 | active
CN(C)CC=CC(=O)Nc1cc2c(Nc3ccc(F)c(Cl)c3)ncnc2cc1O[C@H]1CCOC1 | MKL-2 | active
O=c1[nH]nc(Sc2ncc([N+](=O)[O-])s2)n1-c1ccc2c(c1)OCCO2 | MKL-2 | active
Cc1ccc2nc(NC(=O)CSc3nc4c(c(=O)n3-c3ccccc3)SCC4)sc2c1 | MKL-2 | inactive
Cc1ccc(CN2CCNCC2)cc1NC(=O)CNc1ccc(F)c(F)c1 | MKL-2 | inactive
O=C(CCCCCCC(=O)Nc1ccc([C@H]2O[C@@H](CSc3nc(-c4ccccc4)c(-c4ccccc4)o3)C[C@@H](c3ccc(CO)cc3)O2)cc1)NO | MKL-2 | active
Clc1cccc(-c2nnnn2Cc2cccnc2)c1Cl | MKL-2 | inactive
CC(C)c1ccccc1Cc1cc(C(=O)Nc2ccc(S(=O)(=O)c3ccccc3C(C)(C)C)cc2)c(O)c(O)c1O | MKL-2 | inactive
COc1cc2c(NC3CCN(C(C)C)CC3)nc(C3CCCCC3)nc2cc1OCCCN1CCCC1 | MKL-2 | active
CCn1nnc2c(N3CCOCC3)nc(-c3ccc(NC(=O)Nc4ccc(C(=O)N5CCN(C)CC5)cc4)cc3)nc21 | MKL-2 | active
Cn1cncc1[C@@](N)(c1ccc(Cl)cc1)c1ccc2c(c1)c(-c1cccc(Cl)c1)cc(=O)n2C | MKL-2 | active
COC(=O)C[C@](O)(CCCC(C)(C)O)C(=O)O[C@@H]1C(OC)=C[C@]23CCCN2CCc2cc4c(cc2[C@H]13)OCO4 | MKL-2 | inactive
CCOC(=O)C1=C(C)NC2=C(C(=O)CC(C)(C)C2)C1c1ccc(-c2ccccc2)cc1 (configuration not stated) | MKL-2 | active
CC(C)(O)c1cc2nc(-c3cnc(N)nc3)nc(N3CCOCC3)c2s1 | MKL-2 | inactive
CC[C@@]1(O)C(=O)OCc2c1cc1n(c2=O)Cc2cc3cc(O)ccc3nc2-1 | MKL-2 | active
Cc1c(C)n(Cc2ccc(-c3ccccc3C(=O)O)cc2)c2ccc(C(=O)N[C@@H](C)c3ccc([N+](=O)[O-])cc3)cc12 | MKL-2 | active
O=C(O)C1(Cc2cccc(Nc3nccs3)n2)CCC(Oc2cccc(Cl)c2F)CC1 (configuration not stated) | MKL-2 | inactive
CNc1nccc(-c2cccnc2Oc2cc(C(=O)Nc3cccc(C(F)(F)F)c3)ccc2C)n1 | MKL-2 | inactive
O=C(CCCCCCNC(=O)c1cnc(N(c2ccccc2)c2ccccc2)nc1)NO | MKL-2 | active
C[C@H]1C[C@@H]2[C@@H]([C@@H](O)C[C@@]3(C)[C@H]2CC[C@]3(O)C(=O)CO)[C@@]2(C)C=CC(=O)C=C12 | MKL-2 | inactive
Cn1c(CNc2ccc(C(=N)N)cc2)nc2cc(C(=O)N(CCC(=O)O)c3ccccn3)ccc21 | MKL-2 | inactive
C1Cc2[nH]nc(-c3nn[nH]n3)c2C1 | MKL-2 | inactive
O=C1CCC[C@@H]2[C@H]3CCC[N+]4([O-])CCC[C@@H](CN12)[C@@H]34 (some centres not stated) | MKL-2 | inactive
O=C(NCCS(=O)(=O)c1ccc(C(F)(F)F)cn1)c1ccc(Cl)cc1 | MKL-2 | inactive
COc1ccc(-c2cc3c(C)nc(N)nc3n(C3CCC(OCCO)CC3)c2=O)cn1 (configuration not stated) | MKL-2 | active
Cc1cnc(-c2cnc(NCCNc3ccc(C#N)cn3)nc2-c2ccc(Cl)cc2Cl)[nH]1 | MKL-2 | inactive
Cn1c(=O)n(-c2ccc(C(C)(C)C#N)cc2)c2c3cc(-c4cnc5ccccc5c4)ccc3ncc21 | MKL-2 | inactive
O=C(C=Cc1cccc(S(=O)(=O)Nc2ccccc2)c1)NO | MKL-2 | active
CC(C)c1cc(C(=O)N2Cc3ccc(CN4CCN(C)CC4)cc3C2)c(O)cc1O | MKL-2 | inactive
